FYI, the data here is from ChEMBL document CHEMBL1201862.

- System: MDA-MB-231
- PROTOCOL_NOTES: NCI tumour cell line growth inhibition, 48 h
Active and inactive are the calls of the source. No stated cut-off is given here; in the data, active = GI50 up to about 1.1 µM and inactive = higher.
Provide the reported GI50 of each item.

I would be grateful if you could share the reported GI50 for CN(C)CCOc1ccc(I)cc1Cc1ccccc1 .
3.89 µM (inactive)

I would be grateful if you could share the reported GI50 for Cn1c(=O)sc2cc(C(=S)N3CCOCC3)ccc21 .
> 100 µM (inactive)

I would be grateful if you could share the reported GI50 for C=C(Cl)COC(=O)Nc1cccc(Cl)c1 .
40.4 µM (inactive)

* * *

- System: HOP-92
- PROTOCOL_NOTES: NCI tumour cell line growth inhibition, 48 h
The source made the active and inactive calls. No stated cut-off is given here; in the data, active = GI50 up to about 1.1 µM and inactive = higher.
// one of active, inactive, no free text

I would be grateful if you could indicate the recorded call for Brc1ccc2c3c1[C@@H]1O[C@@H]1c1cccc(c1-3)[C@@H]1O[C@H]21 .
inactive

I would be grateful if you could indicate the recorded call for Cn1c(=O)n(CC2CS2)c2ccccc21 (stereo not given) .
inactive

I would be grateful if you could indicate the recorded call for CC[C@H]1C=CCC[C@@]2(C[C@@H]3CC[C@@H]4[C@H](C(=O)OCCCCCCCCCCCCCCCC(=O)N(CCCNC(C)=O)C[C@H](CCNC(C)=O)OC(C)=O)[C@]5(CCC[C@@H](C)O5)NC(=[N+]34)N2)O1 .
active

I would be grateful if you could indicate the recorded call for O=C1C=CC(=O)c2c(O)c(N(CCCl)CCCl)c(Cl)c(O)c21 .
inactive

I would be grateful if you could indicate the recorded call for O=S(=O)(O)CCSSCCS(=O)(=O)O .
inactive

I would be grateful if you could indicate the recorded call for CCOc1cc(NC(C)=O)ccc1C(=O)NNS(=O)(=O)c1ccc(NC(C)=O)cc1 .
inactive

I would be grateful if you could indicate the recorded call for CCOC(=O)C1C(c2ccc(OC)cc2)c2c(n[nH]c2O)CC1(C)O (stereo not given) .
inactive

I would be grateful if you could indicate the recorded call for CCCCCCCCCCCCCCCC[N+](C)(C)Cc1ccc(F)cc1 .
inactive

I would be grateful if you could indicate the recorded call for c1ccc(C2C3=C(CCCC3)Nc3nc4cc5ccccc5cc4n32)cc1 (stereo not given) .
inactive

I would be grateful if you could indicate the recorded call for CCCCCCCCCCCCCCCCCCNc1ccn(C2OC(COP(=O)(O)OCC3OC(n4cc(C)c(=O)[nH]c4=O)CC3O)C(O)C2O)c(=O)n1 (stereo not given) .
inactive

* * *

- Tested on: SK-MEL-5
- PROTOCOL_NOTES: NCI tumour cell line growth inhibition, 48 h
Calls of active or inactive are those of the source. Rule as the data show it: active = GI50 up to about 1.1 µM and inactive = higher.
// one of YES = active, NO = inactive, no free text

I would be grateful if you could indicate the recorded call for CC(=O)OCC(C)(COC(C)=O)N1C(=O)C2C3c4ccccc4C(c4ccccc43)C2C1=O (stereo not given) .
NO

I would be grateful if you could indicate the recorded call for O=c1[nH]cnc2c1ncn2[C@H]1CO[C@@H](CO)[C@@H]1O .
NO

I would be grateful if you could indicate the recorded call for CCCCNC(=S)OCCC(C)CCCC(C)C (stereo not given) .
NO

I would be grateful if you could indicate the recorded call for CC#CCC1CCC(OCC)=CC1=O (stereo not given) .
NO

I would be grateful if you could indicate the recorded call for CC(=O)OC(OC(C)=O)c1ncccc1C(=O)OC(C)C .
NO

I would be grateful if you could indicate the recorded call for CCOC(=O)[C@H]1Nc2ccc(Cl)cc2[C@H]2OCC[C@@H]12 .
NO

I would be grateful if you could indicate the recorded call for COc1cccc(CCn2c(N)c(-c3ccccc3)c3ccc([N+](=O)[O-])cc3c2=O)c1 .
NO

I would be grateful if you could indicate the recorded call for CCCCn1c(-c2ccc([N+](=O)[O-])cc2)cs/c1=N/N=C1\C(=O)Nc2ccc(Br)cc21 .
NO

I would be grateful if you could indicate the recorded call for O=[N+]([O-])c1cccc(-c2oc(/C=N/c3ccccc3)c([N+](=O)[O-])c2-c2cccc([N+](=O)[O-])c2)c1 .
NO

I would be grateful if you could indicate the recorded call for CC(=O)Nc1cc(/C=C\C(=O)N2CC(CCl)c3c2cc(N)c2ccccc32)n(C)n1 (stereo not given) .
YES
